# system-tested: cynomolgus BMPR1B overexpressed on the surface of HEK293T cells (N-terminal Asp-Lys epitope tag, … (cynomolgus))
# protocol-text: cell-based or functional assay
measurement-type: % live, Fab-saporin, 250pM (%)
Record the value in %, omitting the unit from your answer.

INSERT INTO assay_data (binder, value_unit, result_number) VALUES
  ('SC91.129 (antibody, V domains shown, copies: 2 + 2) VH: QVQLQQPGAELVKPGASVKLSCKASGYTFTNYWMQWVKQRPGQGLEWIGEIDPSDRYTLYNQKFKDKATLTVDTSSSTAYMQLSSLTSEDSAVYYCARFGYYVDYWGQGTTLTVSS VL: DAVMTQSPLSLPVSLGDQASISCRSSQSLVHSTGNTYLHWYLQKPGQSPKLLIYKVSNRFSGVPDRFSGSGSGTDFTLKISRVEAEDLGVYFCSQTTHVPFTFGSGTKLEIK', '%', 18.5),
  ('SC91.111 (antibody, V domains shown, copies: 2 + 2) VH: QIQLVQSGPELKKPGETVKISCKASGYTLTTYGMNWVKQAPGKGLKWMGWINTYSGVPAYADDFKGRFAFSLETSASTAYLQINNFKNEDTATYFCARSELRNWYFDVWGTGTTVTVSS VL: SFVMTQTPKFLLVSAGDRVTITCKASQNMGHNVAWYQQKPGQSPKLLIYYASNRYTGVPDRFTGSGYGTDFTFTISTVQAEDLAVYFCQQDYSSPFTFGSGTKLEIK', '%', 52.9),
  ('SC91.187 (antibody, V domains shown) VH: QVQLQQPGPEFVKPGASVKLSCKASGYTFTSYWVQWVKQRPGQGLEWIGEIDPSDNYTLYNQNFKGKATLTVDTSSSTAYMQLSSLTSEDSAVYYCARFGFYVDYWGQGTTLTVSS VL: DVVMTQTPLSLPVSLGEQASISCRSSQSLVHSTGNTYLHWYLQKPGQSPKLLIYKVSNRFSGVPDRFSGSGSGTDFTLKISRVEAEDLGVYFCSQSTHVPFTFGSGTKLEIK', '%', 24.2);

Next item in the queue.
Per the record, SC91.160 (antibody, V domains shown) VH: QIQLVQSGPELKKPGETVKISCKASGYTFTTYGMNWVKQAPGKGLKWMGWINTYSGVPSSADDFKGRFAFSLETSASTAYLLINNLKNEDTATYFCARSELRNWYFDVWGTGTTVTVSS VL: SFVMTQTPKFLLVSAGDRVTITCKASQNMGHDVAWYQQKPGQSPKLLIYSASNRYTGVPDRFTGSGYGTDFTFTISTVQAEDLAVYFCQQDYSSPFTFGSGTKLEMK has % live, Fab-saporin, 250pM of 34.6

Where these numbers come from: patent US20190153103A1
